Values from PubChem BioAssay (NCI)

System: TK-10 renal
Assay: NCI tumour cell line growth inhibition, 48 h
OBSERVABLE: TGI

- COMPOUND: "Cn1c2ccccc2c(=O)c2cccc(C(=O)NC(CCCN=C(N)N)C(=O)O)c21 (stereo not given)"
  TARGET OR TEST SYSTEM: "TK-10 renal"
  TGI: "> 100 µM"
- COMPOUND: "CC(CO)(CO)NCCCCn1ccc2c1C(=O)c1c(c(O)c3ccccc3c1O)C2=O"
  TARGET OR TEST SYSTEM: "TK-10 renal"
  TGI: "4.57 µM"
- COMPOUND: "Nc1nc(Cl)cc(NCC2(CO)CCCC2)n1"
  TARGET OR TEST SYSTEM: "TK-10 renal"
  TGI: "> 100 µM"
- COMPOUND: "O=C1[C@@H]2C(c3ccccc3F)=NO[C@@H]2C(=O)N1c1ccc(Cc2ccc(N3C(=O)[C@H]4C(c5ccccc5F)=NO[C@H]4C3=O)cc2)cc1"
  TARGET OR TEST SYSTEM: "TK-10 renal"
  TGI: "> 31.6 µM"

Form field TGI, entry O=C1CCC(O)=C1N=Nc1ccccc1 : > 100 µM

---

Reported values of TGI for individual entries
Tested on: MDA-MB-435
Test: NCI tumour cell line growth inhibition, 48 h

The cases that follow already have their TGI on record.
- COMPOUND: "COc1cc2[nH]c(C(=O)c3cc(OC)c(OC)c(OC)c3)c(N)c2cc1C#CC1CC1"
  VAL: "1.17 µM"
- COMPOUND: "On1c(-c2ccccc2)nc2ccccc2c1=S"
  VAL: "> 100 µM"
- COMPOUND: "C=CC[C@]12C=C(OC)[C@@H](O)[C@](OC)(C(c3cc(OC)c4c(c3)OCO4)[C@H]1C)[C@H]2OC(C)=O (stereo not given in full)"
  VAL: "> 100 µM"
- COMPOUND: "Nc1ccc(C(=O)N2CCC[C@H]2CO)c(N)c1"
  VAL: "> 100 µM"

Form field TGI, entry COc1ccc2c(cnc3c4cc(OC)c(OC)cc4ccc23)c1 : > 100 µM

---

Test system: SK-MEL-2 melanoma
Experiment: NCI tumour cell line growth inhibition, 48 h
Reported values of TGI for individual entries

- MOLECULE: "O=C(c1ccccc1)C1OC12C(=O)Nc1ccccc12 (stereo not given)"
  TGI: "> 100 µM"
- MOLECULE: "CN(C)C(=O)[C@H](O)[C@H](Cc1ccccc1)NC(=O)c1cc2cc(Cl)ccc2[nH]1"
  TGI: "37.2 µM"
- MOLECULE: "COc1cc(/C=C(\\C#N)c2ccccc2)cc(OC)c1"
  TGI: "> 100 µM"
- MOLECULE: "CCOC(=O)C1C2CCC1CC(=NNc1ccc([N+](=O)[O-])cc1[N+](=O)[O-])C2 (stereo not given)"
  TGI: "> 50 µM"
- MOLECULE: "Cc1[nH]c2ccccc2c(=O)c1CC=C(Cl)Cl"
  TGI: "> 100 µM"
- MOLECULE: "Nc1ccc(S(=O)(=O)Nc2nccs2)cc1"
  TGI: "> 100 µM"
- MOLECULE: "N#CC1=C(N)N(c2ccccc2)C(c2ccccc2)C1(C#N)C#N (stereo not given)"
  TGI: "42.9 µM"
- MOLECULE: "Cn1c(=O)c(Cc2ccccc2F)cc2cnc(NC3CCOCC3)nc21"
  TGI: "> 25 µM"
- MOLECULE: "O=C(N/N=C/c1cc(Br)cc(Br)c1[O-])c1ccccc1O.O=C(N/N=C/c1cc(Br)cc(Br)c1[O-])c1ccccc1O.[Cu+2]"
  TGI: "1.93 µM"
- MOLECULE: "Cn1c2ccccc2c(=O)c2cccc(C(=O)NC(CCCN=C(N)N)C(=O)O)c21 (stereo not given)"
  TGI: "> 100 µM"

Form field TGI, entry O=C1NC2OC(C(O)CO)C(O)C2O1 (stereo not given) : > 100 µM

Form field TGI, entry CC1(C)[C@@H](OC(N)=O)[C@H]2O[C@H]2[C@]2(C=O)[C@H]3CC[C@]4(C)[C@@H](c5ccc(=O)oc5)[C@@H](Cl)C[C@]4(O)C3=CC[C@@H]12 : 0.0692 µM

Form field TGI, entry CSc1cnc2ccccc2c1SC1CN(Cc2ccccc2)c2ccccc2C1=O (stereo not given) : > 100 µM

Form field TGI, entry CCC/C(Cl)=N\OC(=O)Nc1ccc(OC(F)(F)F)cc1 : 32.9 µM

Form field TGI, entry CCCCN=C(c1ccccc1)N1CCOCC1 : > 100 µM

Form field TGI, entry C[C@H](O)C(=O)N1CCC(CCn2c(Sc3cc4c(cc3Br)OCO4)nc3c(N)ncnc32)CC1 : > 100 µM
